# Test system: HOP-92
# protocol description: NCI tumour cell line growth inhibition, 48 h
Activity calls are given as the source filed them. Cut-off read from the data, not from the text of the source: active = GI50 up to about 1.1 µM and inactive = higher.
Pick from 1 (active), -1 (inactive) when you respond.

Worked set:
In [3]: df
Out[3]:
                                   compound  category_label
0  COc1ccc(C(=O)/C=C/c2ccc(O)c(O)c2F)c(OC)c1              -1
1      CCOC(=O)/C=C(/C(=O)OCC)n1ccc(N)nc1=O              -1
2  OC(c1cccnc1Cl)c1nc2ccccc2c2ccnc(Cl)c12 (stereo not given)              -1
3  CC[C@@]1(O)C[C@H](OC2CC(N(C)C)C(O)C(C)O2)c2c(cc3c(c2O)C(=O)c2c(O)ccc(O)c2C3=O)[C@H]1C(=O)OC (stereo not given in full)               1
4  C(=C\c1ccccc1)/C=N/c1nc2cc3sc(/N=C/C=C/c4ccccc4)nc3cc2s1              -1

Call for entry N#Cc1c(-c2ccccc2)[nH]c2ccccc2c1=O :
-1

Tell me the recorded outcome of this test for Cc1csc2nc(-c3cc([N+](=O)[O-])c(Cl)cc3Cl)c(/C=N/N=C(N)N)n12 .
-1

Recorded test outcome, item CCOC(=N)/C(=C1\OC(=N)C(c2ccc(Cl)cc2)=C1O)c1ccc(Cl)cc1
-1

Could you kindly confirm the outcome this assay logged for Cc1ccc(C2=C(C#N)C(N)OC3=C2COc2ccccc23)cc1 (stereo not given) ?
-1

Please let me know the test result on file for CCOC(=O)c1nc2ccccc2nc1Nc1ccc(C(=O)OC)s1 .
-1

====

# Test system: K562
# protocol description: NCI tumour cell line growth inhibition, 48 h
Calls of active or inactive are those of the source. No stated cut-off is given here; in the data, active = GI50 up to about 1.1 µM and inactive = higher. Where a SMILES comes first, the peptide text is derived from it. Bridges are numbered along the chain shown (N, C = ends). [ ]: non-standard residue; d: D form. The star is where a group is joined. ξ: configuration not given here. ξNMePhe(4-NMe2) = CNC(Cc1ccc(N(C)C)cc1)C(=O)O; Picolinoyl(3-OH) = O=C(c1ncccc1O)*; ξPip(4-oxo) = O=C1CCNC(C(=O)O)C1; Phg = N[CH](C(=O)O)c1ccccc1; Abu = CC[CH](N)C(=O)O
Field: GI50. Provide a value for each of the compounds that follow.

Use the examples below as a reference point.
compound	system	measured quantity	measurement
Cn1ncnc1CCc1ccccc1	K562	GI50	> 100 µM (inactive)
CCOC(=O)[C@H]1Nc2ccc(Cl)cc2[C@H]2c3ccccc3O[C@H]21	K562	GI50	56.5 µM (inactive)
CCn1c(-c2cc3ccccc3cc2OC(C)=O)n[nH]c1=S	K562	GI50	14.5 µM (inactive)
O=C(O)c1ccc(SSc2ccc(C(=O)O)cn2)nc1	K562	GI50	> 100 µM (inactive)

Required: GI50, one value per compound below.
1. NCC(Cc1ccccc1)P(=O)(O)O (stereo not drawn)
2. CC1=C/C(O)CC(=O)Cc2nc(co2)C(=O)N2CCC=C2C(=O)OC(C(C)C)C(C)/C=C/C(=O)NC\C=C\1.CCC1NC(=O)C(NC(=O)c2ncccc2O)C(C)OC(=O)C(c2ccccc2)NC(=O)C2CC(=O)CCN2C(=O)C(Cc2ccc(N(C)C)cc2)N(C)C(=O)C2CCCN2C1=O (stereo not drawn) ({Picolinoyl(3-OH)}-T[Abu]P[ξNMePhe(4-NMe2)][ξPip(4-oxo)][Phg]; ester 1-C; configuration not given here)
3. CN(C)c1ccc(/C=C/c2ccnc3ccccc23)cc1N
4. CCCc1[nH]nc(C(N)=O)c1/N=N/N(C)C

["> 100 µM (inactive)", "4.72 µM (inactive)", "3.98 µM (inactive)", "2.56 µM (inactive)"]

Measured values drawn from ChEMBL document CHEMBL1201862 for this set.
